# Experimental target: Programmed cell death 1 ligand/protein 1 (Homo sapiens, UniProt Q15116+Q9NZQ7)
# Sequence (Q9NZQ7 whole entry): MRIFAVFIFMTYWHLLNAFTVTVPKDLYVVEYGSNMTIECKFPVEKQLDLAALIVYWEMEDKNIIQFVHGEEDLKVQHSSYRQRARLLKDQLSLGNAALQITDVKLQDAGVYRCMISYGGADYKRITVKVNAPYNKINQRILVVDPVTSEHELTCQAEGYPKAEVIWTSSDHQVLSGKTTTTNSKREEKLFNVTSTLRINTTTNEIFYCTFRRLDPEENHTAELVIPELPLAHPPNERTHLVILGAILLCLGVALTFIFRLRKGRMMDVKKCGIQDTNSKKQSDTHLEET
# Sequence (Q15116 whole entry): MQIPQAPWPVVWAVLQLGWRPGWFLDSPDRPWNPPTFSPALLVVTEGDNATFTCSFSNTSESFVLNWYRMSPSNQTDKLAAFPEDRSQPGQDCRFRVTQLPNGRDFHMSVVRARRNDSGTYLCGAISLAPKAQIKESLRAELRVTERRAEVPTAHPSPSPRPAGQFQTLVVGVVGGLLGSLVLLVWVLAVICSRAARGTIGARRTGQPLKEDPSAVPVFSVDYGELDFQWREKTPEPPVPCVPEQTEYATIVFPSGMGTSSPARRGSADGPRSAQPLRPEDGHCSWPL
# Protocol details: In Vitro Inhibitory Activity Against PD-1/PD-L1 Binding
Readout kind: pIC50
Please express pIC50 as -log10 of the molar concentration.

input: Give the measured pIC50 of COCC12CCC(CCN3CCc4c(nc(C(=O)Nc5cccc(-c6cccc(NC(=O)c7nc8c(n7C)CCN(CCC79CCC(C(=O)O)(CC7)C9)C8)c6Cl)c5Cl)n4C)C3)(CC1)C2 [US20230365590, Compound I-6] .
output: 8.93
